Hi there, I'd appreciate the recorded MIC for every entry that follows.
System: Streptococcus pneumoniae
assay overview: Antibacterial activity against Streptococcus pneumoniae ATCC 49619 assessed as inhibition of visible growth incubated for 18 hrs by CLSI protocol based microbroth dilution method
Type: functional

Looking up C[C@H]1COc2c(N3CCN(C)CC3)c(F)cc3c(=O)c(C(=O)N[C@@H](CCN)C(=O)N[C@@H](CCN)C(N)=O)cn1c23 , I see its MIC listed as > 128 µg/mL

Looking up C[C@H]1COc2c(N3CCN(C)CC3)c(F)cc3c(=O)c(C(=O)N[C@@H](CCN)C(N)=O)cn1c23 , I see its MIC listed as > 128 µg/mL

Looking up C[C@H]1COc2c(N3CCN(C)CC3)c(F)cc3c(=O)c(C(=O)N[C@H](CN)CCC(=O)O)cn1c23 , I see its MIC listed as > 128 µg/mL

Looking up C[C@H]1COc2c(N3CCN(C)CC3)c(F)cc3c(=O)c(C(=O)N[C@@H](CCC(=O)O)C(=O)N[C@H](CN)CCC(=O)O)cn1c23 , I see its MIC listed as > 128 µg/mL

Looking up C[C@H]1COc2c(N3CCN(C)CC3)c(F)cc3c(=O)c(C(=O)NCCCCCCCCCCCC(=O)N[C@@H](CCN)C(N)=O)cn1c23 , I see its MIC listed as > 128 µg/mL

Looking up C[C@H]1COc2c(N3CCN(C)CC3)c(F)cc3c(=O)c(C(=O)NCCCCCCCCCCCC(=O)N[C@@H](CCN)C(=O)N[C@@H](CCN)C(N)=O)cn1c23 , I see its MIC listed as > 128 µg/mL
